Please provide measured TGI for the entries that follow.
- System: MDA-MB-231 breast
- EXPERIMENT: NCI tumour cell line growth inhibition, 48 h

Quick check: TGI of C=CC(=O)N(C)[C@H]1C[C@H]2OC(C)(C1OC)n1c3ccccc3c3c4c(c5c6ccccc6n2c5c31)C(=O)NC4 (stereo partly specified) ?
1.04 µM

Likewise for "CCOC(=O)c1c(N2CCCC2)nsc1Nc1ccccc1" ?
> 100 µM

Likewise for "O=c1oc2ccccc2cc1/C=N/N1C(=S)N(c2ccccc2)C(=Nc2ccccc2)C1=Nc1ccccc1" ?
> 100 µM

Likewise for "O=c1oc2ccccc2c(Nc2ccc3c(c2)S(=O)(=O)c2ccccc2O3)c1[N+](=O)[O-]" ?
67.9 µM

Likewise for CC(CN1CCN(CCOCCO)CC1)CN1c2ccccc2Sc2ccc(Cl)cc21 (stereo unspecified) ?
4.79 µM

Likewise for COc1ccc(NC2Oc3cc4c(cc3C(c3cccc(OC)c3OC)C2C)OCO4)cc1 (stereo unspecified) ?
> 100 µM

Likewise for CC(=O)OCC(OC(C)=O)C(OC(C)=O)C(C=NN(C(C)=O)S(=O)(=O)c1ccc(/C=C2\NC(=O)NC2=O)cc1)OC(C)=O (stereo unspecified) ?
> 100 µM

Likewise for "COc1cc(OC)c(OC)cc1/C=N/N=C(\N)NO" ?
> 100 µM

Likewise for Cc1ccc(N2C(=O)C3c4[nH]c5ccccc5c4C4CCC(C(C)(C)C)CC4C3C2=O)cc1 (stereo unspecified) ?
15.8 µM

Likewise for "CCCCCCNC(=O)c1cnc(Cl)cn1" ?
32.4 µM

Likewise for "Cc1ccc(/C=N/Nc2cnccn2)s1" ?
> 100 µM

Likewise for COC(=O)C1=CSC2(S1)C(C(=O)OC)=CSc1c2ssc1=Nc1ccccc1 (stereo unspecified) ?
4.79 µM

Likewise for COc1ccc(N2C(=O)C3c4[nH]c5ccc(C)cc5c4C4CCC(C)CC4C3C2=O)cc1 (stereo unspecified) ?
> 100 µM

Likewise for "C/C(=N\Nc1nc2ccccc2s1)c1ncccn1" ?
> 64.6 µM

Likewise for "C=CCOC(=O)/C(=C\c1ccc(OC)c(OC)c1)c1ccc(OC)c(OC)c1" ?
> 100 µM

Likewise for "NC(N)=N/N=C/c1c(-c2ccccc2)nc2n1ccc1nc(-c3ccccc3)c(/C=N/N=C(N)N)n12" ?
> 100 µM

Likewise for "Nc1ncnc2[nH]ncc12" ?
> 100 µM

Likewise for "O=C1c2ccccc2-c2c1c1ccc([N+](=O)[O-])cc1c(=O)n2CCCBr" ?
> 100 µM

Likewise for "COc1ccc(-c2c(N)n(-c3nc4ccccc4s3)c(=O)c3cc([N+](=O)[O-])ccc23)cc1" ?
48.7 µM

Likewise for "C1=NCCNCCN=Cc2ccc(cc2)OCc2cccc(n2)COc2ccc1cc2" ?
> 100 µM

Likewise for "O=C(CN1CCNCCN(CC(=O)N2CCCCC2)CCNCC1)N1CCCCC1" ?
> 100 µM

Likewise for CC1C(c2ccccc2)OP(=O)(OC(C#N)c2ccccc2)N1C (stereo unspecified) ?
> 100 µM

Likewise for "O=C(O)C/C=C/CC(=O)O" ?
> 100 µM

Likewise for "O=c1[nH]c2ccccc2nc1-c1c[nH]c2ccccc12" ?
> 100 µM

Likewise for Cc1cc(=O)[nH]c(NN2C(Cl)C(=O)C2c2ccc(Cl)cc2)n1 (stereo unspecified) ?
72 µM

Likewise for "COc1cccc(C=Nc2cc(C)ccn2)c1O.COc1cccc(C=Nc2cc(C)ccn2)c1O.[Cu]" ?
50.4 µM

Likewise for "Cn1c2c(cc(S(=O)(=O)c3ccccc3)c1=O)CCc1c-2cnn1-c1ccc(Cl)cc1" ?
5.27 µM

Likewise for "CNC(=O)OCc1c(COC(=O)NC)c(C)n(-c2ccc(Br)cc2)c1C" ?
30.5 µM

Likewise for "NNC(=O)c1ccc(-n2nnc(C(=O)NN)c2C(=O)NN)cc1" ?
> 100 µM

Likewise for CSc1nc(N)c(NC2OC(CO)C(O)C2O)c(=O)[nH]1 (stereo unspecified) ?
> 100 µM

Likewise for "Cc1n[nH]c(=O)c2cc(-c3ccccc3)[nH]c12" ?
> 100 µM

Likewise for "CCN=C1C=CC(=C(c2ccc(N)cc2)c2ccc(N(CC)CC)c(C)c2)C=C1" ?
0.654 µM

Likewise for "CC1=NN(c2ccccc2)C(=O)/C1=C/c1ccc(O)cc1" ?
> 100 µM

Likewise for CCC(NC(C)c1ccccc1)C(O)c1ccc(OCc2ccccc2)c(OCc2ccccc2)c1 (stereo unspecified) ?
21.2 µM

Likewise for COc1ccc(NC(=O)CC(=O)N2N=C(C)C(N=Nc3ccc(S(=O)(=O)c4ccc(N=NC5C(=O)N(C(=O)CC(=O)Nc6ccc(OC)cc6)N=C5C)cc4)cc3)C2=O)cc1 (stereo unspecified) ?
> 100 µM

Likewise for "C/C(=N\Nc1ccc2ccccc2n1)c1ccccn1" ?
4.06 µM

Likewise for "CN(C)c1ccc(N=Nc2ccc3nc[nH]c3c2)cc1" ?
39.4 µM

Likewise for "Cc1c(/C=N/NC(=S)Nc2ccccc2Cl)c(=O)n(-c2ccccc2)n1C" ?
35.7 µM

Likewise for CC1(CCC2C=CCC2)CCCNC1=S (stereo unspecified) ?
> 10 µM

Likewise for COc1cc2cc(C(=O)N3CC(CCl)c4ccc(O)cc43)[nH]c2c(OC)c1OC (stereo unspecified) ?
0.0134 µM

Likewise for "CC(C)(C)c1ccc(OCCCCCCN2CCNCC2)cc1" ?
7.97 µM
